Where do the numbers come from? From patent US20250163056A1.

Collected Ki values appear next to each entry.
- Assay Target: Bovine cardiac myosin (Bos taurus (Bovine))
- Assay Procedure: Cardiac muscle myosin II actin-activated ATPase assay (NADH-coupled)
- Format: biochemical
- Stated Conditions: 300 nM cardiac myosin, 10 μM actin, 25° C.; read-out: CMMII KI
Numbers only; they are read as µM.

| Compound | Reported Metric | Result Value |
| --- | --- | --- |
| Cc1cc(N2CC[C@@]3(O)C(=O)c4cc(C(F)(F)F)ccc4N=C23)on1 | Ki | 50 |
| Cc1cc2cc(N3CC[C@@]4(O)C(=O)c5cc(C)c(C)cc5N=C34)ccc2cn1 | Ki | 24 |
| Cc1ccc2c(c1)C(=O)[C@]1(O)CCN(c3ccc4nc(C#N)ccc4c3)C1=N2 | Ki | 30 |
| Cc1cc2c(cc1C)C(=O)[C@]1(O)CCN(c3cnc(C)c(C)c3)C1=N2 [BPN-0028694] | Ki | 16 |
| Cc1ccc2c(c1)C(=O)[C@]1(O)CCN(c3ccccc3)C1=N2 [Blebbistatin, reference compound] | Ki | 1.5 |
| Cc1ncc(N2CC[C@@]3(O)C(=O)c4cc(C(F)(F)F)ccc4N=C23)s1 | Ki | 23 |
| Cc1sc2c(c1C)C(=O)[C@]1(O)CCN(c3ccc(I)cc3)C1=N2 | Ki | 9 |

// below: Ki requested for another compound
Problem: Report its Ki with Bovine cardiac myosin (Bos taurus (Bovine)) as the test system: `Cc1cc(N2CC[C@@]3(O)C(=O)c4cc(C)c(C)cc4N=C23)ccn1`
Result: 200

---

- Assay Procedure: Solubility (quoted in the Table 2 note)
- Assay type: physicochemical
Reported Metric: solubility (µM)
Numbers only; they are read as µM.

Problem: Give the measured solubility for Cc1ccc2c(c1)C(=O)[C@]1(O)CCN(c3ccccc3)C1=N2 [Blebbistatin, reference compound]
Result: 9.3

---

Collected Photostability 4 hours values appear next to each entry.
- Assay Procedure: Photostability, percentage remaining undegraded under illumination or in the dark
- Stated Conditions: percentage remaining undegraded after 4 hours illumination

Problem: Give the measured Photostability 4 hours for `Cc1cc(N2CC[C@@]3(O)C(=O)c4cc(C(F)(F)F)ccc4N=C23)on1`
Result: 79.8%

Problem: Give the measured Photostability 4 hours for `Cc1ccc2c(c1)C(=O)[C@]1(O)CCN(c3ccc4ccsc4c3)C1=N2`
Result: 80.5%

Problem: Give the measured Photostability 4 hours for Cc1ccc2c(c1)C(=O)[C@]1(O)CCN(c3ccccc3)C1=N2 [Blebbistatin, reference compound]
Result: 82.9%

---

- Assay Target: Bovine cardiac myosin (Bos taurus (Bovine), UniProt Q9BE39)
- Sequence (Q9BE39 whole entry): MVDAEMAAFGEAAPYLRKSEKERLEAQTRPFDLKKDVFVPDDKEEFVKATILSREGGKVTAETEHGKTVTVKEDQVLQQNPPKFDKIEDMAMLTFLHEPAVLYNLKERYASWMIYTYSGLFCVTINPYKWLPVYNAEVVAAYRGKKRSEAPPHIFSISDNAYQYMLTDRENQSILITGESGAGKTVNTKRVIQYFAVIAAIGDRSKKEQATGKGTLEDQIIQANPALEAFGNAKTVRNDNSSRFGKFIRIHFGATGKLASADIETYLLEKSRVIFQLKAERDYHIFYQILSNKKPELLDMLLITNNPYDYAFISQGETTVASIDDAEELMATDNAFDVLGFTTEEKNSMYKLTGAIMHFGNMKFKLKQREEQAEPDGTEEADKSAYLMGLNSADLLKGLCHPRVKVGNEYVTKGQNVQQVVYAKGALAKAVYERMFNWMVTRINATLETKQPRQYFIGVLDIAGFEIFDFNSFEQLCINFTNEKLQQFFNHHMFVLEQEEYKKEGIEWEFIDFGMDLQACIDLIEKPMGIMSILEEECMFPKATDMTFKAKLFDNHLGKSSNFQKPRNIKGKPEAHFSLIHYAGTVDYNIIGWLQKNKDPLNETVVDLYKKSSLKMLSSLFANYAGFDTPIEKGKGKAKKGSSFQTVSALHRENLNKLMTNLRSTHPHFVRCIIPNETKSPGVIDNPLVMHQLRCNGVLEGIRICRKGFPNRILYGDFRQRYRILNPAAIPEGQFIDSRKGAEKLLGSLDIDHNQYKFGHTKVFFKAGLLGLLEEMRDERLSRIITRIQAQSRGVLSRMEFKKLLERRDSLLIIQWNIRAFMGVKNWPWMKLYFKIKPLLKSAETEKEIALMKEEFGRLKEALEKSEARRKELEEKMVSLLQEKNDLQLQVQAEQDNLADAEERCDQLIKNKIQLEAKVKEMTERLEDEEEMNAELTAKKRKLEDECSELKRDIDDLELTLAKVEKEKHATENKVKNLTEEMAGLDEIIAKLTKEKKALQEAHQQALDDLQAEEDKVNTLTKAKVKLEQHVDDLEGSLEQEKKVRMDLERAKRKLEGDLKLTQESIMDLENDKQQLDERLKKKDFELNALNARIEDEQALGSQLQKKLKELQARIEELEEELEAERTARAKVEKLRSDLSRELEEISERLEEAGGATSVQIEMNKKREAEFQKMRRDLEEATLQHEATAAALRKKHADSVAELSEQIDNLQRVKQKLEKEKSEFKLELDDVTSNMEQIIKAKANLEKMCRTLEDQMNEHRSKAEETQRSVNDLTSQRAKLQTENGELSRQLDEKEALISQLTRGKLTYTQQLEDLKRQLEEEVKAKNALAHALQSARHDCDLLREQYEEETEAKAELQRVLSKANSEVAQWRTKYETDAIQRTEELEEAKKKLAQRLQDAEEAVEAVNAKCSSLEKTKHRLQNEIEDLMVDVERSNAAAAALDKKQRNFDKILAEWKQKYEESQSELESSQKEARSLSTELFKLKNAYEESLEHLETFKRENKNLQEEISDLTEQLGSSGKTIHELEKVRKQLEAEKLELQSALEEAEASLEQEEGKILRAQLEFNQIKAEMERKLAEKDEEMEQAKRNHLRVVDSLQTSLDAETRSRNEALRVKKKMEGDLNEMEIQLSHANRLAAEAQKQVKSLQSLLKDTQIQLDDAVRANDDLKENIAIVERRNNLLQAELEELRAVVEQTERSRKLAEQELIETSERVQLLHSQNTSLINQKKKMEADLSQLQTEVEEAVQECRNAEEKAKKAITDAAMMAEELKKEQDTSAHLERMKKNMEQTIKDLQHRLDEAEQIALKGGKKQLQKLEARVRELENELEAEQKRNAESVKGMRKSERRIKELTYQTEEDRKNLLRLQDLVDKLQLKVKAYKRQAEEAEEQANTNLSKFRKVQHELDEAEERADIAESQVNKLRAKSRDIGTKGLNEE
- Sequence (P85100 whole entry partner): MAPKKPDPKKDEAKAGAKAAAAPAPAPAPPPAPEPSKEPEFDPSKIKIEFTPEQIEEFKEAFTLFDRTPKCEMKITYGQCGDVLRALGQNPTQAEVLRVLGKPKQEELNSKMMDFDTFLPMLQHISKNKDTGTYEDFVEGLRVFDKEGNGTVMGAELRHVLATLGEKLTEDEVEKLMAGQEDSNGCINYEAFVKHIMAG
- Sequence (Q3SZE5 whole entry partner): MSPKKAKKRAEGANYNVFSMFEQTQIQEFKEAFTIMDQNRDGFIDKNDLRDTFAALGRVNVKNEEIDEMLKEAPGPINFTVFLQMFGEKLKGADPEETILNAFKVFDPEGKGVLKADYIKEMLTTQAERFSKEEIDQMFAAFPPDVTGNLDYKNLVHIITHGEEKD
- Assay Procedure: Cardiac muscle myosin II actin-activated ATPase assay (NADH-coupled)
- Type: biochemical
- Stated Conditions: cardiac muscle myosin II; read-out: CMMII Ki
Reported Metric: pKi
// field semantics: pKi = negative decimal log of concentration (mol/L)

| Molecule | Result Value |
| --- | --- |
| Cc1ccc2c(c1)C(=O)[C@]1(O)CCN(c3ccccc3)C1=N2 [Blebbistatin, reference compound] | 6.17 |
| Cc1cccc(N2CC[C@@]3(O)C(=O)c4cc(C)ccc4N=C23)c1 [BPN-0025100] | 4.58 |
| O=C1c2cc(Cl)ccc2N=C2N(c3ccccc3)CC[C@@]12O [BPN-0025002] | 5.71 |

// below: pKi requested for another molecule
Problem: Give the measured pKi for Cc1ccc2c(c1)C(=O)[C@]1(O)CCN(c3cccc(Cl)c3)C1=N2 [BPN-0025059]
Result: 4.33
